target: CETP (Homo sapiens); assay: Assay of CETP Inhibition using Purified Components (Reconstituted Buffer Assay); format: biochemical; design: made in house; host or cells: CHO cells (serum-free conditioned medium); details: Inhibition of CETP activity in reconstituted buffer assay; transfer of [3H]CE from HDL to LDL; read-out: IC50
Sequence (P11597 18-493): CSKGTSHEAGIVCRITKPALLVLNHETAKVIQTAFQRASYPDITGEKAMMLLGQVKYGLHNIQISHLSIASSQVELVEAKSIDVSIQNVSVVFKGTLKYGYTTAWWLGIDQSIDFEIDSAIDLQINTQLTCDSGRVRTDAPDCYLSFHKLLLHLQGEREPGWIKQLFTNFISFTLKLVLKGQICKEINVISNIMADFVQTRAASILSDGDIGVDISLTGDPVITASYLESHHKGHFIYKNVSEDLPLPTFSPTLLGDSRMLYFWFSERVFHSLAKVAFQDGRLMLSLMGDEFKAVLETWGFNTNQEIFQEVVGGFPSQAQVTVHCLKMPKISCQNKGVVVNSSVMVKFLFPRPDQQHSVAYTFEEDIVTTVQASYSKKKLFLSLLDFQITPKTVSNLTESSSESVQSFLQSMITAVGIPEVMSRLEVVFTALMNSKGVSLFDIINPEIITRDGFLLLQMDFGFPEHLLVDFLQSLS
assayMetric: IC50 (µM)

[[record]]
molecule = "Cc1cccc(CN(CC(O)C(F)(F)F)c2ccccc2C)c1 (stereo not shown)"
assaymetric = "IC50"
valueunit = "µM"
operator = ">"
numericvalue = 100

[[record]]
molecule = "OC(CN(Cc1cccc(Oc2ccccc2)c1)c1cccc(OC(F)(F)F)c1)C(F)(F)F (stereo not shown)"
assaymetric = "IC50"
valueunit = "µM"
operator = "="
numericvalue = 8

[[record]]
molecule = "OC(CN(Cc1cccc(OC(F)(F)C(F)F)c1)c1cccc(-c2ccc(Cl)cc2Cl)c1)C(F)(F)F (stereo not shown)"
assaymetric = "IC50"
valueunit = "µM"
operator = "="
numericvalue = 0.55

[[record]]
molecule = "CN(Cc1ccccc1)C(=O)c1cccc(N(Cc2cccc(OC(F)(F)C(F)F)c2)CC(O)C(F)(F)F)c1 (stereo not shown)"
assaymetric = "IC50"
valueunit = "µM"
operator = ">"
numericvalue = 50

